Test system: Mycobacterium tuberculosis
Test: Bacteriostatic activity against Mycobacterium tuberculosis H37Rv assessed as growth inhibition
Type: functional
Listing of recorded MIC99 by entry.
Give the value in µg/mL but do not write µg/mL after it.

CCCCCCCCCCCCOCc1cn([C@H]2C[C@H](O)[C@@H](CN)O2)c(=O)[nH]c1=O	20

Could you share which MIC99 value was measured for CCCCCCCCCCCCOCc1cn([C@H]2C[C@H](NCC)[C@@H](CO)O2)c(=O)[nH]c1=O ?
10

Could you share which MIC99 value was measured for CCCCCCCCCCCOCc1cn([C@H]2C[C@H](O)[C@@H](CO)O2)c(=O)[nH]c1=O ?
20

Could you share which MIC99 value was measured for CCCCCCCCc1cn(Cc2cn([C@H]3C[C@H](O)[C@@H](CO)O3)c(=O)nc2N)nn1 ?
40

====

Assay: Cytotoxicity against human A549 cells after 72 hrs by MTT assay
Type: cell-based
Details: read-out: CD50
Listing of recorded CC50 at 72 h by entry.
Give the value in µg/mL but do not write µg/mL after it.

Some entries whose results are on file:
CCCCCCCCCCCCOCc1cn([C@H]2C[C@H](NCC)[C@@H](CO)O2)c(=O)[nH]c1=O	5
CCCCCCCCCCCCOCc1cn([C@H]2C[C@H](N=[N+]=[N-])[C@@H](CO)O2)c(=O)[nH]c1=O	10
CCCCCCCCCCCCOCc1cn([C@H]2C[C@H](O)[C@@H](CN)O2)c(=O)[nH]c1=O	8

Could you share which CC50 at 72 h value was measured for CCCCCCCCCCCCOCc1cn([C@@H]2C[C@H](O)[C@@H](CO)O2)c(=O)[nH]c1=O ?
45

Could you share which CC50 at 72 h value was measured for CCCCCCCCCCCCc1cn(Cc2cn([C@H]3C[C@H](O)[C@@H](CO)O3)c(=O)nc2N)nn1 ?
100

Could you share which CC50 at 72 h value was measured for CCCCCCCCCCCCOCc1cn([C@H]2C[C@H](O)[C@@H](CO)O2)c(=O)nc1N ?
45

Could you share which CC50 at 72 h value was measured for CCCCCCCCCCCCOCc1cn([C@H]2C[C@H](O)[C@@H](CO)O2)c(=O)[nH]c1=O ?
100

Could you share which CC50 at 72 h value was measured for CCCCCCCCCCc1cn(Cc2cn([C@H]3C[C@H](O)[C@@H](CO)O3)c(=O)nc2N)nn1 ?
100

====

Test: Cytotoxicity against African green monkey Vero cells after 72 hrs by MTT assay
Type: cell-based
Conditions: chlorocebus sabaeus, read-out: CD50
Listing of recorded CC50 at 72 h by entry.

Some entries whose results are on file:
CCCCCCCCCCCOCc1cn([C@H]2C[C@H](O)[C@@H](CO)O2)c(=O)[nH]c1=O	> 100 µg/mL
CCCCCCCCCCCCOCc1cn([C@H]2C[C@H](N(CC)CC)[C@@H](CO)O2)c(=O)[nH]c1=O	7.5 µg/mL
CCCCCCCCCCCCOCc1cn([C@@H]2C[C@H](O)[C@@H](CO)O2)c(=O)[nH]c1=O	> 100 µg/mL
CCCCCCCCCCCCOCc1cn([C@H]2C[C@H](NCC)[C@@H](CO)O2)c(=O)[nH]c1=O	13 µg/mL

// next item, CC50 at 72 h requested
Could you share which CC50 at 72 h value was measured for CCCCCCCCc1cn(Cc2cn([C@H]3C[C@H](O)[C@@H](CO)O3)c(=O)[nH]c2=O)nn1 ?
> 100 µg/mL
